Consider the following compounds; for each one, report its TGI.
System: SF-539 CNS
assay.info: NCI tumour cell line growth inhibition, 48 h

Request: I am curious: what TGI value has been reported for CCOC(=O)/C(C#N)=C1\N[C@H](C(=O)OCC)CO1 ?
Result: > 100 µM

Request: Also COC(=O)[C@]1(C)CCC[C@@]2(C)C1CCC1=C[C@@]3(C(C)C)CC[C@]12OO3 (stereo not given in full) , if possible.
Result: 47.5 µM

Request: Also O=C1c2ccccc2C(=O)C1C(c1ccc([N+](=O)[O-])cc1)C1C(=O)c2ccccc2C1=O , if possible.
Result: > 100 µM

Request: Also CC(C)N1CSC(=S)N(Cc2ccccc2)C1 , if possible.
Result: 3.35 µM

Request: Also O=C1CC2C(=O)N(Cc3ccccc3)C1C(S(=O)(=O)c1ccccc1)C2S(=O)(=O)c1ccccc1 (stereo not given) , if possible.
Result: 4.18 µM
